# Lookup of reported viability, T/C keyed by entry
# Test system: NCI-H1417 complex spheroids, growth % test/control
# experiment notes: Anticancer human tumor NCI-H1417 cell line growth inhibition [Asc];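 also: spheroids exposed to compounds for 7 days; 100% = DMSO vehicle control wells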
# assay context: second compound 0.1 µM; first compound 3.16 µM; stronger effect = lower value
Reply numerically in %, unit not repeated.

// worked examples, viability, T/C included
O=C(c1cc(Cc2n[nH]c(=O)c3ccccc23)ccc1F)N1CCN(C(=O)C2CC2)CC1 + CNC(C)C(=O)NC1CN(S(=O)(=O)c2cccc(S(=O)(=O)N3CCC4CCC(C(=O)NC(c5ccccc5)c5ccccc5)N4C(=O)C(NC(=O)C(C)NC)C3)c2)CCC2CCC(C(=O)NC(c3ccccc3)c3ccccc3)N2C1=O :: 60.7
C#Cc1c(F)ccc2cc(O)cc(-c3ncc4c(N5CC6CCC(C5)N6)nc(OCC56CCCN5CC(F)C6)nc4c3F)c12 (stereo not drawn) + CNC(C)C(=O)NC1CN(S(=O)(=O)c2cccc(S(=O)(=O)N3CCC4CCC(C(=O)NC(c5ccccc5)c5ccccc5)N4C(=O)C(NC(=O)C(C)NC)C3)c2)CCC2CCC(C(=O)NC(c3ccccc3)c3ccccc3)N2C1=O :: 91.2

Please look up its viability, T/C: C=CC(=O)N1CCN(c2nc(=O)n(-c3c(C)ccnc3C(C)C)c3nc(-c4c(O)cccc4F)c(F)cc23)C(C)C1 (stereo not drawn) + CNC(C)C(=O)NC1CN(S(=O)(=O)c2cccc(S(=O)(=O)N3CCC4CCC(C(=O)NC(c5ccccc5)c5ccccc5)N4C(=O)C(NC(=O)C(C)NC)C3)c2)CCC2CCC(C(=O)NC(c3ccccc3)c3ccccc3)N2C1=O
92

Please look up its viability, T/C: C=C(F)C(=O)N1CCN(c2nc(OCC3CCCN3C)nc3c2CCN(c2cccc4cccc(Cl)c24)C3)CC1CC#N (stereo not drawn) + Cc1c(S(C)(=O)=O)c(-c2cc(F)cc(N3CCN(c4ccc(NS(=O)(=O)c5ccc(NC(CCN6CCC(C(=O)OCCCP(=O)(O)O)CC6)CSc6ccccc6)c(S(=O)(=O)C(F)(F)F)c5)cc4)CC3)c2)c(-c2ccc(Cl)cc2)n1C(C)C
1.57

Please look up its viability, T/C: C#Cc1c(F)ccc2cc(O)cc(-c3ncc4c(N5CC6CCC(C5)N6)nc(OCC56CCCN5CC(F)C6)nc4c3F)c12 (stereo not drawn) + Cc1c(S(C)(=O)=O)c(-c2cc(F)cc(N3CCN(c4ccc(NS(=O)(=O)c5ccc(NC(CCN6CCC(C(=O)OCCCP(=O)(O)O)CC6)CSc6ccccc6)c(S(=O)(=O)C(F)(F)F)c5)cc4)CC3)c2)c(-c2ccc(Cl)cc2)n1C(C)C
64.7

Please look up its viability, T/C: C=CC(=O)N1CCN(c2nc(=O)n(-c3c(C)ccnc3C(C)C)c3nc(-c4c(O)cccc4F)c(F)cc23)C(C)C1 (stereo not drawn) + Cc1c(S(C)(=O)=O)c(-c2cc(F)cc(N3CCN(c4ccc(NS(=O)(=O)c5ccc(NC(CCN6CCC(C(=O)OCCCP(=O)(O)O)CC6)CSc6ccccc6)c(S(=O)(=O)C(F)(F)F)c5)cc4)CC3)c2)c(-c2ccc(Cl)cc2)n1C(C)C
79.5

Please look up its viability, T/C: O=C(c1cc(Cc2n[nH]c(=O)c3ccccc23)ccc1F)N1CCN(C(=O)C2CC2)CC1 + Cc1c(S(C)(=O)=O)c(-c2cc(F)cc(N3CCN(c4ccc(NS(=O)(=O)c5ccc(NC(CCN6CCC(C(=O)OCCCP(=O)(O)O)CC6)CSc6ccccc6)c(S(=O)(=O)C(F)(F)F)c5)cc4)CC3)c2)c(-c2ccc(Cl)cc2)n1C(C)C
25.5

Please look up its viability, T/C: C=C(F)C(=O)N1CCN(c2nc(OCC3CCCN3C)nc3c2CCN(c2cccc4cccc(Cl)c24)C3)CC1CC#N (stereo not drawn) + CNC(C)C(=O)NC1CN(S(=O)(=O)c2cccc(S(=O)(=O)N3CCC4CCC(C(=O)NC(c5ccccc5)c5ccccc5)N4C(=O)C(NC(=O)C(C)NC)C3)c2)CCC2CCC(C(=O)NC(c3ccccc3)c3ccccc3)N2C1=O
62.3

----------
# Lookup of reported viability, T/C keyed by entry
# System: NCI-H1417 complex spheroids, growth % test/control
# experiment notes: Anticancer human tumor NCI-H1417 cell line growth inhibition [Asc];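 also: spheroids exposed to compounds for 7 days; 100% = DMSO vehicle control wells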
# assay context: second compound 0.0949 µM; first compound 0.1 µM; stronger effect = lower value
Reply numerically in %, unit not repeated.

C#Cc1c(F)ccc2cc(O)cc(-c3ncc4c(N5CC6CCC(C5)N6)nc(OCC56CCCN5CC(F)C6)nc4c3F)c12 (stereo not drawn) + CCN1C(C(=O)NC23CCC(C(=O)O)(CC2)CC3)C(c2cccc(Cl)c2F)C2(C(=O)Nc3cc(Cl)ccc32)C12CCCCC2 :: 103
C=C(F)C(=O)N1CCN(c2nc(OCC3CCCN3C)nc3c2CCN(c2cccc4cccc(Cl)c24)C3)CC1CC#N (stereo not drawn) + CCN1C(C(=O)NC23CCC(C(=O)O)(CC2)CC3)C(c2cccc(Cl)c2F)C2(C(=O)Nc3cc(Cl)ccc32)C12CCCCC2 :: 93.6

Please look up its viability, T/C: CCN1CCN(Cc2ccc(Nc3ncc(F)c(-c4cc(F)c5nc(C)n(C(C)C)c5c4)n3)nc2)CC1 + CCN1C(C(=O)NC23CCC(C(=O)O)(CC2)CC3)C(c2cccc(Cl)c2F)C2(C(=O)Nc3cc(Cl)ccc32)C12CCCCC2
98.2

----------
# Lookup of reported viability, T/C keyed by entry
# System: NCI-H1417 complex spheroids, growth % test/control
# experiment notes: Anticancer human tumor NCI-H1417 cell line growth inhibition [Asc];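 also: spheroids exposed to compounds for 7 days; 100% = DMSO vehicle control wells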
# assay context: second compound 0.316 µM; first compound 0.0316 µM; stronger effect = lower value
Reply numerically in %, unit not repeated.

// worked examples, viability, T/C included
COc1c(OCCCN2CCOCC2)ccc2c3n(c(=NC(=O)c4cnc(N)nc4)nc12)CCN3 + CNC(C)C(=O)NC1CN(S(=O)(=O)c2cccc(S(=O)(=O)N3CCC4CCC(C(=O)NC(c5ccccc5)c5ccccc5)N4C(=O)C(NC(=O)C(C)NC)C3)c2)CCC2CCC(C(=O)NC(c3ccccc3)c3ccccc3)N2C1=O :: 87.2
O=C(c1cc(Cc2n[nH]c(=O)c3ccccc23)ccc1F)N1CCN(C(=O)C2CC2)CC1 + Cc1c(S(C)(=O)=O)c(-c2cc(F)cc(N3CCN(c4ccc(NS(=O)(=O)c5ccc(NC(CCN6CCC(C(=O)OCCCP(=O)(O)O)CC6)CSc6ccccc6)c(S(=O)(=O)C(F)(F)F)c5)cc4)CC3)c2)c(-c2ccc(Cl)cc2)n1C(C)C :: 44.5

Please look up its viability, T/C: C=C(F)C(=O)N1CCN(c2nc(OCC3CCCN3C)nc3c2CCN(c2cccc4cccc(Cl)c24)C3)CC1CC#N (stereo not drawn) + Cc1c(S(C)(=O)=O)c(-c2cc(F)cc(N3CCN(c4ccc(NS(=O)(=O)c5ccc(NC(CCN6CCC(C(=O)OCCCP(=O)(O)O)CC6)CSc6ccccc6)c(S(=O)(=O)C(F)(F)F)c5)cc4)CC3)c2)c(-c2ccc(Cl)cc2)n1C(C)C
43.5

----------
# Test system: NCI-H1417 complex spheroids, growth % test/control
# experiment notes: Anticancer human tumor NCI-H1417 cell line growth inhibition [Asc]; active means viability on the fitted dose curve at most 10% of control; inactive means the rest;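 also: spheroids exposed to compounds for 7 days; 100% = DMSO vehicle control wells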
# assay context: second compound 1 µM; first compound 10 µM
Assign a class; possible classes are active, inactive

C=CC(=O)N1CCN(c2nc(=O)n(-c3c(C)ccnc3C(C)C)c3nc(-c4c(O)cccc4F)c(F)cc23)C(C)C1 (stereo not drawn) + CNC(C)C(=O)NC1CN(S(=O)(=O)c2cccc(S(=O)(=O)N3CCC4CCC(C(=O)NC(c5ccccc5)c5ccccc5)N4C(=O)C(NC(=O)C(C)NC)C3)c2)CCC2CCC(C(=O)NC(c3ccccc3)c3ccccc3)N2C1=O :: inactive

Kindly provide the recorded test outcome for the following molecule: C=C(F)C(=O)N1CCN(c2nc(OCC3CCCN3C)nc3c2CCN(c2cccc4cccc(Cl)c24)C3)CC1CC#N (stereo not drawn) + Cc1c(S(C)(=O)=O)c(-c2cc(F)cc(N3CCN(c4ccc(NS(=O)(=O)c5ccc(NC(CCN6CCC(C(=O)OCCCP(=O)(O)O)CC6)CSc6ccccc6)c(S(=O)(=O)C(F)(F)F)c5)cc4)CC3)c2)c(-c2ccc(Cl)cc2)n1C(C)C
active

Kindly provide the recorded test outcome for the following molecule: C#Cc1c(F)ccc2cc(O)cc(-c3ncc4c(N5CC6CCC(C5)N6)nc(OCC56CCCN5CC(F)C6)nc4c3F)c12 (stereo not drawn) + Cc1c(S(C)(=O)=O)c(-c2cc(F)cc(N3CCN(c4ccc(NS(=O)(=O)c5ccc(NC(CCN6CCC(C(=O)OCCCP(=O)(O)O)CC6)CSc6ccccc6)c(S(=O)(=O)C(F)(F)F)c5)cc4)CC3)c2)c(-c2ccc(Cl)cc2)n1C(C)C
active

----------
# System: NCI-H1417 complex spheroids, growth % test/control
# experiment notes: Anticancer human tumor NCI-H1417 cell line growth inhibition [Asc];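 also: spheroids exposed to compounds for 7 days; 100% = DMSO vehicle control wells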
# assay context: second compound 0.01 µM; first compound 1 µM; stronger effect = lower value
endpoint name: viability, T/C (%)
Reply numerically in %, unit not repeated.

// worked examples, viability, T/C included
C=C(F)C(=O)N1CCN(c2nc(OCC3CCCN3C)nc3c2CCN(c2cccc4cccc(Cl)c24)C3)CC1CC#N (stereo not given) + CNC(C)C(=O)NC1CN(S(=O)(=O)c2cccc(S(=O)(=O)N3CCC4CCC(C(=O)NC(c5ccccc5)c5ccccc5)N4C(=O)C(NC(=O)C(C)NC)C3)c2)CCC2CCC(C(=O)NC(c3ccccc3)c3ccccc3)N2C1=O :: 92.2
O=C(c1ccc(F)c(F)c1Nc1ccc(I)cc1F)N1CC(O)([C@@H]2CCCCN2)C1 + CNC(C)C(=O)NC1CN(S(=O)(=O)c2cccc(S(=O)(=O)N3CCC4CCC(C(=O)NC(c5ccccc5)c5ccccc5)N4C(=O)C(NC(=O)C(C)NC)C3)c2)CCC2CCC(C(=O)NC(c3ccccc3)c3ccccc3)N2C1=O :: 85.3
O=C(c1cc(Cc2n[nH]c(=O)c3ccccc23)ccc1F)N1CCN(C(=O)C2CC2)CC1 + CNC(C)C(=O)NC1CN(S(=O)(=O)c2cccc(S(=O)(=O)N3CCC4CCC(C(=O)NC(c5ccccc5)c5ccccc5)N4C(=O)C(NC(=O)C(C)NC)C3)c2)CCC2CCC(C(=O)NC(c3ccccc3)c3ccccc3)N2C1=O :: 83.6
CCN1CCN(Cc2ccc(Nc3ncc(F)c(-c4cc(F)c5nc(C)n(C(C)C)c5c4)n3)nc2)CC1 + CNC(C)C(=O)NC1CN(S(=O)(=O)c2cccc(S(=O)(=O)N3CCC4CCC(C(=O)NC(c5ccccc5)c5ccccc5)N4C(=O)C(NC(=O)C(C)NC)C3)c2)CCC2CCC(C(=O)NC(c3ccccc3)c3ccccc3)N2C1=O :: 111

Shifting focus to the molecule that follows.
Please look up its viability, T/C: COc1c(OCCCN2CCOCC2)ccc2c3n(c(=NC(=O)c4cnc(N)nc4)nc12)CCN3 + CNC(C)C(=O)NC1CN(S(=O)(=O)c2cccc(S(=O)(=O)N3CCC4CCC(C(=O)NC(c5ccccc5)c5ccccc5)N4C(=O)C(NC(=O)C(C)NC)C3)c2)CCC2CCC(C(=O)NC(c3ccccc3)c3ccccc3)N2C1=O
58.4
